Consider the following molecules and their measured GST act. readings.
System: Glutathione S-Transferase
MEASUREMENT NOTES: Glutathione S-transferase (GST) activity in tissue cytosol of treated mice, CDNB substrate
Assay type: in vivo, Female A/J mice
TEST CONDITIONS: small intestinal mucosa; dose 0.04 mmol/Kg body weight, gavage in corn oil
Please state the figure in μmol/min mg protein; there is no need to write the unit.

N#C[Se]Cc1ccc(C[Se]C#N)s1 [(2) TDMSC, thienyl-2,5-di-methylene selenocyanate] ... 0.40

Entry N#C[Se]Cc1ccc[se]1 [(3) SMSC, 2-selenophenyl methylene selenocynate] has what GST act.?
0.20

Then this molecule: N#C[Se]Cc1ccc(C[Se]C#N)[se]1
0.36

###

// reported GST act. for each item listed
System: Glutathione S-Transferase
MEASUREMENT NOTES: Glutathione S-transferase (GST) activity in tissue cytosol of treated mice, CDNB substrate
Type: in vivo, Female A/J mice
TEST CONDITIONS: colon; dose 0.02 mmol/Kg body weight, gavage in corn oil
Quick note: give the figure in μmol/min mg protein, leave out the unit.

Solved entries (count: 2):
N#C[Se]Cc1ccc[se]1 [(3) SMSC, 2-selenophenyl methylene selenocynate] ... 0.70
N#C[Se]Cc1ccc(C[Se]C#N)s1 [(2) TDMSC, thienyl-2,5-di-methylene selenocyanate] ... 0.40

Please turn your attention to the following entry.
Entry under review: N#C[Se]Cc1ccc(C[Se]C#N)cc1 [p-XSC, 1,4-phenylenebis(methylene)selenocyanate, reference compound] . Reported GST act.?
0.72

###

Test system: Glutathione S-Transferase
MEASUREMENT NOTES: Glutathione S-transferase (GST) activity in tissue cytosol of treated mice, CDNB substrate
Type: in vivo, Female A/J mice
TEST CONDITIONS: lung; dose 0.02 mmol/Kg body weight, gavage
Readings of Ratio Test/con (GST) for the listed compounds
Answer with a bare number; do not write a unit.

Would you please look over these solved cases?
N#C[Se]Cc1ccc(C[Se]C#N)cc1 [p-XSC, 1,4-phenylenebis(methylene)selenocyanate, reference compound] ... 1.41
[Se]=C=NCc1ccc(CN=C=[Se])s1 [(6) TDMISC] ... 1.29
[Se]=C=NCc1ccc(CN=C=[Se])[se]1 [(7) SDMISC] ... 1.31
N#C[Se]Cc1ccc(C[Se]C#N)s1 [(2) TDMSC, thienyl-2,5-di-methylene selenocyanate] ... 1.04
N#C[Se]Cc1ccc(C[Se]C#N)[se]1 [(4) SDMSC] ... 1.23

Field: next compound
Can you look up the measured Ratio Test/con (GST) of N#C[Se]Cc1ccc[se]1 [(3) SMSC, 2-selenophenyl methylene selenocynate] for me?
1.18

###

Tested on: Glutathione S-Transferase
MEASUREMENT NOTES: Glutathione S-transferase (GST) activity in tissue cytosol of treated mice, CDNB substrate
Format: in vivo, Female A/J mice
TEST CONDITIONS: forestomach; dose 0.04 mmol/Kg body weight, gavage in corn oil
Below, each entry is listed alongside its reported GST act..
Hi! Could you send only the number? It should be in μmol/min mg protein, unit omitted.

// worked examples, GST act. included
N#C[Se]Cc1ccc[se]1 [(3) SMSC, 2-selenophenyl methylene selenocynate] ... 1.12
[Se]=C=NCc1ccc(CN=C=[Se])s1 [(6) TDMISC] ... 1.23
N#C[Se]Cc1ccc(C[Se]C#N)[se]1 [(4) SDMSC] ... 0.94

Now for the molecule whose GST act. we want.
Look up GST act. with Glutathione S-Transferase for this molecule: [Se]=C=NCc1ccc(CN=C=[Se])[se]1 [(7) SDMISC]
1.27

###

Test system: Glutathione S-Transferase
MEASUREMENT NOTES: Glutathione S-transferase (GST) activity in tissue cytosol of treated mice, CDNB substrate
Type: in vivo, Female A/J mice
TEST CONDITIONS: liver; dose 0.04 mmol/Kg body weight, gavage
// classify: if (Ratio Test/con (GST) < 2) 1 (yes) else 0 (no)

[Se]=C=NCc1ccc(CN=C=[Se])[se]1 [(7) SDMISC] ... 0 (no)

Consider the molecule N#C[Se]Cc1ccc[se]1 [(3) SMSC, 2-selenophenyl methylene selenocynate] . Is its Ratio Test/con (GST) strictly less than 2?
1 (yes)

Try this molecule next: N#C[Se]Cc1ccc(C[Se]C#N)[se]1 [(4) SDMSC]
1 (yes)

Quick one: N#C[Se]Cc1ccc(C[Se]C#N)s1 [(2) TDMSC, thienyl-2,5-di-methylene selenocyanate]
1 (yes)

Then [Se]=C=NCc1ccc(CN=C=[Se])s1 [(6) TDMISC] ?
0 (no)

###

System: UDP-Glucuronosyltransferase (UDP-GT)
MEASUREMENT NOTES: UDP-glucuronosyltransferase (UDP-GT) activity in liver microsomes of treated mice, o-aminophenol substrate
Format: in vivo, Female A/J mice
TEST CONDITIONS: dose 0.02 mmol/Kg body weight, gavage
Listed here: items and their measured Ratio Test/con (UDP-GT).
When you answer, write just the number.

// solved cases for Ratio Test/con (UDP-GT) follow
N#C[Se]Cc1ccc[se]1 [(3) SMSC, 2-selenophenyl methylene selenocynate] ... 1.52
N#C[Se]Cc1ccc(C[Se]C#N)s1 [(2) TDMSC, thienyl-2,5-di-methylene selenocyanate] ... 1.58

Fill blank: measured Ratio Test/con (UDP-GT) of the molecule [Se]=C=NCc1ccc(CN=C=[Se])[se]1 [(7) SDMISC] is ____.
2.56

Please do the same for N#C[Se]Cc1ccc(C[Se]C#N)[se]1 [(4) SDMSC] as well.
2.30

Thanks! And [Se]=C=NCc1ccc(CN=C=[Se])s1 [(6) TDMISC] ?
1.50

###

Catalogue of GST act. readings, one per entry.
Tested on: Glutathione S-Transferase
MEASUREMENT NOTES: Glutathione S-transferase (GST) activity in tissue cytosol of treated mice, CDNB substrate
Assay type: in vivo, Female A/J mice
TEST CONDITIONS: liver; dose 0.02 mmol/Kg body weight, gavage in corn oil
Marks after values point to notes of the source that are not given here.

Worked cases, GST act. given:
N#C[Se]Cc1ccc(C[Se]C#N)cc1 [p-XSC, 1,4-phenylenebis(methylene)selenocyanate, reference compound] ... 1.64 ± 0.45 μmol/min mg protein
N#C[Se]Cc1ccc[se]1 [(3) SMSC, 2-selenophenyl methylene selenocynate] ... 1.04 ± 0.18 ^g μmol/min mg protein

For the next question, use this compound.
Field request: GST act. | item: N#C[Se]Cc1ccc(C[Se]C#N)[se]1
1.20 ± 0.11 ^g μmol/min mg protein

###

Tested on: Glutathione S-Transferase
MEASUREMENT NOTES: Glutathione S-transferase (GST) activity in tissue cytosol of treated mice, CDNB substrate
Format: in vivo, Female A/J mice
TEST CONDITIONS: lung; dose 0.04 mmol/Kg body weight, gavage in corn oil
READOUT: GST act. (μmol/min mg protein)
Report only the number, with the unit μmol/min mg protein understood.

Example entries and their recorded answers appear below.
N#C[Se]Cc1ccc(C[Se]C#N)[se]1 ... 0.55
[Se]=C=NCc1ccc(CN=C=[Se])[se]1 ... 0.40
[Se]=C=NCc1ccc(CN=C=[Se])s1 ... 0.59
N#C[Se]Cc1ccc[se]1 [(3) SMSC, 2-selenophenyl methylene selenocynate] ... 0.34

Form field: GST act. recorded for N#C[Se]Cc1ccc(C[Se]C#N)s1 [(2) TDMSC, thienyl-2,5-di-methylene selenocyanate] with Glutathione S-Transferase (enter value)
0.54

###

System: UDP-Glucuronosyltransferase (UDP-GT)
MEASUREMENT NOTES: UDP-glucuronosyltransferase (UDP-GT) activity in liver microsomes of treated mice, o-aminophenol substrate
Type: in vivo, Female A/J mice
TEST CONDITIONS: dose 0.04 mmol/Kg body weight, gavage in corn oil
Marks after values point to notes of the source that are not given here.
READOUT: UDP-GT activity (column head prints GSH conc.)

Answered examples (5):
[Se]=C=NCc1ccc(CN=C=[Se])[se]1 ... 6.46 ± 1.95 nmol/min/mg protein
[Se]=C=NCc1ccc(CN=C=[Se])s1 ... 7.98 ± 2.49 nmol/min/mg protein
N#C[Se]Cc1ccc(C[Se]C#N)[se]1 ... 10.75 ± 2.04 ^d nmol/min/mg protein
N#C[Se]Cc1ccc(C[Se]C#N)cc1 [p-XSC, 1,4-phenylenebis(methylene)selenocyanate, reference compound] ... 7.60 ± 2.47 ^d nmol/min/mg protein
N#C[Se]Cc1ccc[se]1 [(3) SMSC, 2-selenophenyl methylene selenocynate] ... 9.56 ± 4.23 ^d nmol/min/mg protein

Which UDP-GT activity (column head prints GSH conc.) reading was recorded for the compound N#C[Se]Cc1ccc(C[Se]C#N)s1 [(2) TDMSC, thienyl-2,5-di-methylene selenocyanate] ?
12.44 ± 2.31 ^c nmol/min/mg protein

###

Tested on: Glutathione S-Transferase
MEASUREMENT NOTES: Glutathione S-transferase (GST) activity in tissue cytosol of treated mice, CDNB substrate
Assay type: in vivo, Female A/J mice
TEST CONDITIONS: liver; dose 0.04 mmol/Kg body weight, gavage in corn oil
Marks after values point to notes of the source that are not given here.
READOUT: GST act.

// below: answered compounds
[Se]=C=NCc1ccc(CN=C=[Se])s1 [(6) TDMISC] ... 3.24 ± 0.39 ^e μmol/min mg protein
N#C[Se]Cc1ccc(C[Se]C#N)s1 [(2) TDMSC, thienyl-2,5-di-methylene selenocyanate] ... 1.26 ± 0.21 μmol/min mg protein

Field request: GST act. | item: N#C[Se]Cc1ccc(C[Se]C#N)[se]1 [(4) SDMSC]
1.69 ± 0.18 ^e μmol/min mg protein
